Exercise: for every item that follows, state its recorded selectivity ratio.
# test.protocol: Selectivity index, ratio of CC50 for cytotoxicity against human HePAD38 cells assessed as reduction in cell viability to EC50 for antiviral activity against HBV infected human HePAD38 cells assessed as reduction of HBV DNA level
# Assay type: toxicity, cell-based
# measurement.parameters: read-out: Ratio CC50/EC50

[
  {
    "compound": "CCOC(=O)C1=C(CN2CCN(C(C(=O)O)c3cccc([N+](=O)[O-])c3)CC2)NC(c2nccs2)=NC1c1ccc(F)cc1Br (stereo not drawn)",
    "selectivity ratio": 1220
  }
]

Please give selectivity ratio, item by item, for the list that follows.
1. CCOC(=O)C1=C(CN2CCN(C(C(=O)O)c3ccc(C=O)cc3)CC2)NC(c2nccs2)=NC1c1ccc(F)cc1Br (stereo not drawn)
2. CCOC(=O)C1=C(CN2CCN(C(C(=O)O)c3ccccc3)CC2)NC(c2nccs2)=NC1c1ccc(F)cc1Br (stereo not drawn)
3. CCOC(=O)C1=C(CN2CCN(C(C(=O)O)c3ccccc3O)CC2)NC(c2nccs2)=NC1c1ccc(F)cc1Br (stereo not drawn)
4. CCOC(=O)C1=C(CN2CCN(C(/C=C/c3ccccc3)C(=O)O)CC2)NC(c2nccs2)=NC1c1ccc(F)cc1Br (stereo not drawn)
5. CCOC(=O)C1=C(CN2CCN(C(C(=O)O)c3ccc(Cl)cc3)CC2)NC(c2nccs2)=NC1c1ccc(F)cc1Br (stereo not drawn)
6. CCOC(=O)C1=C(CN2CCN(C(C(=O)O)c3cccc(C#N)c3)CC2)NC(c2nccs2)=NC1c1ccc(F)cc1Br (stereo not drawn)
7. CCOC(=O)C1=C(CN2CCN(C(C(=O)O)c3cccc(O)c3)CC2)NC(c2nccs2)=NC1c1ccc(F)cc1Br (stereo not drawn)

> 12.9
> 18.6
3.4
1060
57.3
< 2.2
> 21
